biological target: BRG-1 (Homo sapiens, UniProt P51532); experiment: ATPase catalytic activity assay (ADP-Glo), BRG-1
Sequence (P51532 whole entry): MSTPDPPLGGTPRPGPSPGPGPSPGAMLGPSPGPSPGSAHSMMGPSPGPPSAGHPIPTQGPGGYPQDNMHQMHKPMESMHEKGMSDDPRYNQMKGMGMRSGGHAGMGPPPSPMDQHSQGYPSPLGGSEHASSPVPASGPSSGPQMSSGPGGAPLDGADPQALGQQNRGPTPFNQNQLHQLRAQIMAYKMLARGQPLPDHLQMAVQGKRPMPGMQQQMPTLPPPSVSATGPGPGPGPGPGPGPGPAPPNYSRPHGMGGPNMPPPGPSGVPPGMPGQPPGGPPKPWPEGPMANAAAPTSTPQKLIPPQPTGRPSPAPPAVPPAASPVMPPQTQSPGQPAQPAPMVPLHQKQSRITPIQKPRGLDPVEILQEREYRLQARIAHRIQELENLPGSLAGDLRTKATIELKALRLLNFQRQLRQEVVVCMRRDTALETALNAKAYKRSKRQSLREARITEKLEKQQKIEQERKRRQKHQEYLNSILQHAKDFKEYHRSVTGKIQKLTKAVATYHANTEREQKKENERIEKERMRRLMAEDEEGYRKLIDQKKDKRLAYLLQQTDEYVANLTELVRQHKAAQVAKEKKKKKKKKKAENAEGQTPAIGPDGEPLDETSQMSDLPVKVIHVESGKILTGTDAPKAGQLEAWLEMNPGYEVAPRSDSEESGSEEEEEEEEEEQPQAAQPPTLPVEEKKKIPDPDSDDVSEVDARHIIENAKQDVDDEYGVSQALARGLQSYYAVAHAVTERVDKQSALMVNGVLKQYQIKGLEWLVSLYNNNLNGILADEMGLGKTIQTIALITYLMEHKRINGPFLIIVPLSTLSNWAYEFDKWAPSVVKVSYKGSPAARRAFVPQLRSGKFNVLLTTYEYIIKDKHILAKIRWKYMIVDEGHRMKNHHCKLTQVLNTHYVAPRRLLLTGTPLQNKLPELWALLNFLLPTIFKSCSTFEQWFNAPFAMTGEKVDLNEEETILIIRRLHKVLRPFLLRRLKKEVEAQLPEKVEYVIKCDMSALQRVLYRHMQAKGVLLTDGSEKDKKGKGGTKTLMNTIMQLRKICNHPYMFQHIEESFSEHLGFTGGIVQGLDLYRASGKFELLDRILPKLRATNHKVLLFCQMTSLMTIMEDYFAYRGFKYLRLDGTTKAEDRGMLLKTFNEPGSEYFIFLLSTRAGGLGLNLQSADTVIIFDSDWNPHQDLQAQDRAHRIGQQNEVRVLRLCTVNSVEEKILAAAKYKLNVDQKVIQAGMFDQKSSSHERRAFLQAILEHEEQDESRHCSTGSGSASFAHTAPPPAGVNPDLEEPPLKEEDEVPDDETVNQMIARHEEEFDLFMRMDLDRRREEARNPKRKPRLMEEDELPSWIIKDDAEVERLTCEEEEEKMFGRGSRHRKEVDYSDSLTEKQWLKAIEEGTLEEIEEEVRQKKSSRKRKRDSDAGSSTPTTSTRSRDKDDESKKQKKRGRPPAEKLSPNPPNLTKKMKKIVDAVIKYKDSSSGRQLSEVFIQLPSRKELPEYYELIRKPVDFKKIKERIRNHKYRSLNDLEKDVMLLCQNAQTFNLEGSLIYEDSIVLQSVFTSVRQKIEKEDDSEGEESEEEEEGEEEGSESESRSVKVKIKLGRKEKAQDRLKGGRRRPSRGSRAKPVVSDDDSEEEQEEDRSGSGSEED
pIC50: −log10 of the molar value.
Examples of compounds with documented pIC50 follow.

COMPOUND: COC1CN(c2nccc(-c3ccc4cnc(CNC(=O)c5ccc6c(c5)[C@](C)(C#N)COC6)cc4n3)n2)C1
pIC50: 6.30 to 7.00
--
COMPOUND: C[C@@]1(C#N)COCc2ccc(C(=O)NCc3cc4cc(-c5ccccc5)cnc4cn3)cc21
pIC50: 6.00 to 6.30
--
COMPOUND: O=C(NCc1cc2nc(-c3ccccc3)ccc2cn1)c1ccc2c(c1)[C@@](F)(C(F)F)COC2
pIC50: 6.00 to 6.30
--
COMPOUND: Cn1c(=O)ccc2ccc(-c3ccc4cnc(CNC(=O)c5ccc6c(c5)[C@](C)(C#N)COC6)cc4n3)nc21
pIC50: 6.30 to 7.00
--
COMPOUND: C[C@@]1(F)COCc2ccc(C(=O)NCc3cc4nc(-c5cccc(N6CCCC6=O)n5)cnc4cn3)cc21
pIC50: 6.30 to 7.00
--
COMPOUND: CNC(=O)c1ccc(-c2ccc3cnc(CNC(=O)c4ccc5c(c4)[C@](C)(C#N)COC5)cc3n2)cc1
pIC50: 6.00 to 6.30
--
COMPOUND: C[C@@]1(C#N)COCc2ccc(C(=O)NCc3cc4cc(-c5cccc(C6(O)CC6)n5)ccc4cn3)cc21
pIC50: > 7.00
--
COMPOUND: COC1CCN(c2nccc(-c3ccc4cnc(CNC(=O)c5ccc6c(c5)[C@](C)(C#N)COC6)cc4n3)n2)C1 (some centres unmarked)
pIC50: > 7.00
--
COMPOUND: CO[C@@H]1CCN(c2cncc(-c3ccc4cnc(CNC(=O)c5ccc6c(c5)[C@](C)(C#N)COC6)cc4c3)n2)C1
pIC50: > 7.00
--
COMPOUND: C[C@@]1(C#N)COCc2ccc(C(=O)NCc3cc4c(cn3)CCN(c3cncc(N5CCC5)n3)C4)cc21
pIC50: 6.30 to 7.00
--
COMPOUND: COc1c(-c2ccc3cnc(CNC(=O)c4ccc5c(c4)[C@](C)(C#N)COC5)cc3n2)cnn1C
pIC50: 6.00 to 6.30
--
COMPOUND: C[C@@]1(C#N)COCc2ccc(C(=O)NCc3cc(OCc4ccc(C#N)cc4)ccn3)cc21
pIC50: < 6.00
--
COMPOUND: C[C@@]1(F)COCc2ccc(C(=O)NCc3cc4nc(-c5cncc(C6CC6)n5)ccc4nn3)cc21
pIC50: 6.30 to 7.00
--
COMPOUND: C[C@@]1(C#N)COCc2ccc(C(=O)NCc3cc4nc(-c5ccnc(N6CC[C@@H](F)C6)n5)ccc4cn3)cc21
pIC50: 6.30 to 7.00
--
COMPOUND: C[C@@]1(F)COCc2ccc(C(=O)NCc3cc4nc(-c5cccc(C6CC6)n5)ccc4nn3)cc21
pIC50: 6.30 to 7.00
--
COMPOUND: COc1cc(C2COC2)ccc1-c1ccc2cnc(CNC(=O)c3ccc4c(c3)[C@](C)(C#N)COC4)cc2n1
pIC50: 6.30 to 7.00
--
COMPOUND: C[C@@]1(C#N)COCc2ccc(C(=O)NCc3cc4nc(-c5cnn(-c6cccnc6)c5)ccc4cn3)cc21
pIC50: < 6.00

* * *

biological target: BRG-1 (Homo sapiens); experiment: ATPase catalytic activity assay (ADP-Glo), BRG-1
pIC50: −log10 of the molar value.
Here, each record is paired with measured pIC50 data.
RECORDED_METRIC: pIC50

STRUCTURE_AS_SMILES: COc1cc(N2CCOCC2)ccc1-c1ccc2cnc(CNC(=O)c3ccc4c(c3)[C@](C)(C#N)COC4)cc2n1
RESULT: 6.00 to 6.30
--
STRUCTURE_AS_SMILES: C[C@@]1(C#N)COCc2ccc(C(=O)NCc3cc4cc(-c5cccc(N6CCC6)n5)ccc4cn3)cc21
RESULT: > 7.00
--
STRUCTURE_AS_SMILES: COc1nn(C)cc1-c1ccc2cnc(CNC(=O)c3ccc4c(c3)[C@](C)(F)COC4)cc2c1
RESULT: 6.30 to 7.00
--
STRUCTURE_AS_SMILES: COc1nn(C(F)F)cc1-c1ccc2cnc(CNC(=O)c3cnc4c(c3)[C@](C)(F)COC4)cc2n1
RESULT: 6.00 to 6.30
--
STRUCTURE_AS_SMILES: C[C@@]1(C#N)COCc2ccc(C(=O)NCc3cc4cc(-c5cncc(N6CCC6)n5)ccc4nn3)cc21
RESULT: 6.30 to 7.00
--
STRUCTURE_AS_SMILES: C[C@@]1(C#N)COCc2ccc(C(=O)NCc3cc4nc(-c5cncc(N6CCCC6)n5)ccc4cn3)cc21
RESULT: > 7.00

* * *

biological target: BRG-1 (Homo sapiens, UniProt P51532); assay: ATPase catalytic activity assay (ADP-Glo), BRG-1
// reported IC50 per item

COMPOUND: CN1CC(c2cccc(-c3ccc4cnc(CNC(=O)c5ccc6c(c5)[C@](C)(C#N)COC6)cc4n3)n2)C1 [Compound 359]
IC50: > 1000 nM
--
COMPOUND: C[C@@]1(C#N)COCc2ccc(C(=O)NCc3cc(C4CCN(c5ccccc5)C4)ccn3)cc21 (stereo partly shown) [Compound 62]
IC50: > 1000 nM
--
COMPOUND: COc1cccc(-c2ccc3cnc(CNC(=O)c4ccc5c(c4)[C@](C)(C#N)COC5)cc3n2)c1 [Compound 91]
IC50: 500 to 1000 nM
--
COMPOUND: COc1nn(C)cc1-c1ccc2cnc(CNC(=O)c3ccc4c(c3)[C@](C)(F)COC4)cc2n1 [Compound 343]
IC50: 500 to 1000 nM
--
COMPOUND: C[C@@]1(C#N)COCc2ccc(C(=O)NCc3cc([C@@H]4C[C@H]4c4ccccc4)ccn3)cc21 [Compound 8]
IC50: > 1000 nM
--
COMPOUND: COc1nn(C)cc1-c1ccc2nnc(CNC(=O)c3ccc4c(c3)[C@](C)(C#N)COC4)cc2c1 [Compound 329]
IC50: 100 to 500 nM
--
COMPOUND: COc1nn(C)cc1-c1cnc2cnc(CNC(=O)c3ccc4c(c3)[C@](C)(C#N)COC4)cc2c1 [Compound 261]
IC50: 500 to 1000 nM
--
COMPOUND: C[C@@]1(C#N)COCc2ccc(C(=O)NCc3cc4nc(-c5ccnc([C@H]6CC6(F)F)n5)ccc4cn3)cc21 [Compound 217]
IC50: 500 to 1000 nM
--
COMPOUND: CCc1cc2c(-c3ccc4cnc(CNC(=O)c5ccc6c(c5)[C@](C)(C#N)COC6)cc4n3)cccc2n1C [Compound 134]
IC50: < 100 nM
--
COMPOUND: Cn1ccc2c(c1=O)CCN(c1ccnc(CNC(=O)c3ccc4c(c3)[C@](C)(C#N)COC4)c1)C2 [Compound 73]
IC50: > 1000 nM
--
COMPOUND: C[C@@]1(C#N)COCc2ccc(C(=O)NCc3cnc4ccc(-c5ccccc5)nc4c3)cc21 [Compound 106]
IC50: > 1000 nM
--
COMPOUND: C[C@@]1(C#N)COCc2ccc(C(=O)NCc3cc4c(cn3)CCN(c3ccnc(C5CC5)n3)C4)cc21 [Compound 327]
IC50: > 1000 nM
--
COMPOUND: C[C@@]1(C#N)COCc2ccc(C(=O)NCc3cc4c(cn3)CCN(c3cncc(C5CC5)n3)C4)cc21 [Compound 328]
IC50: 500 to 1000 nM

Values were extracted from patent US12441726B2.
